Molecular target: WRN (Homo sapiens, UniProt Q14191)
Construct: A His-tagged construct of WRN (AA S2-S1235) was produced and used for the ATPase assay; made in house; host or cells: Sf9 insect cells (baculovirus, pFastBac1)
Sequence (Q14191 2-1235): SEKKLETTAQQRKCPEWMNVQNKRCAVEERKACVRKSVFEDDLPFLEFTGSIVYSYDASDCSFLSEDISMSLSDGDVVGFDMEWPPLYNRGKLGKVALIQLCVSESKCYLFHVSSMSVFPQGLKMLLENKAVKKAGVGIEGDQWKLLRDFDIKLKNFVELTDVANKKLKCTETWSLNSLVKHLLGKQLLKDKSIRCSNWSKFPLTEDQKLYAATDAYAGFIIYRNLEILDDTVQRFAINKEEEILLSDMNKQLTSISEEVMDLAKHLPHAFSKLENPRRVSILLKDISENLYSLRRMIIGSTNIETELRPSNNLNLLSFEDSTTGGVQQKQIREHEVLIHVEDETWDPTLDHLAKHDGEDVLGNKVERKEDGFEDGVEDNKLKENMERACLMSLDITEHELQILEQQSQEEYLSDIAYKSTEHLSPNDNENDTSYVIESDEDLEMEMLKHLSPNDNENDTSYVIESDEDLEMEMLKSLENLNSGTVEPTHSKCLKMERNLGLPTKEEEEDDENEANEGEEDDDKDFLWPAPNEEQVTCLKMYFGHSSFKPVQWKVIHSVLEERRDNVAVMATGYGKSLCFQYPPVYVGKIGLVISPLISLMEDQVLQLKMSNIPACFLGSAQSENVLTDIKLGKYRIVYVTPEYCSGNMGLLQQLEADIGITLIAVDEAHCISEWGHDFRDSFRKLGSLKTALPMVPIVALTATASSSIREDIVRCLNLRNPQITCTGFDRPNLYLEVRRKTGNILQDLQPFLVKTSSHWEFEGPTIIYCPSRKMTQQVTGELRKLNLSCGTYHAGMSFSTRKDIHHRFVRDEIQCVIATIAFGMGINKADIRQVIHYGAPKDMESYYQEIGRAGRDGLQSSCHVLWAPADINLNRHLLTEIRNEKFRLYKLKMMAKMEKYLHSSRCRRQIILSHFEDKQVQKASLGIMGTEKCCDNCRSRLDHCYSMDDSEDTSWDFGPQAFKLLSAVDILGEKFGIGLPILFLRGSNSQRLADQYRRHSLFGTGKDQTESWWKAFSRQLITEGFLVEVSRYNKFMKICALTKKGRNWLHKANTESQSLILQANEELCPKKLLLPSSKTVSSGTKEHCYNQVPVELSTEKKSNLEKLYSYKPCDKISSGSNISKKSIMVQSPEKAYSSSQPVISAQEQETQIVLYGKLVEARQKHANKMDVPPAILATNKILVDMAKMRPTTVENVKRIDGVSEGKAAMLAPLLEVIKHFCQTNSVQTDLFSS
Assay: WRN Helicase Activity Assay (fluorescence DNA unwinding)
Format: biochemical
Details: 1-hr pre-incubation with enzyme; 100 μM ATP, 25 nM forked dsDNA, 1 nM WRN; geometric mean of at least 2 replicates
The compounds listed here are annotated with their IC50.

Looking for the measured IC50 of C=CC(=O)Nc1ccccc1-c1c(CC)nc2n(CC(=O)Nc3ccc(C(F)(F)F)cc3)c(C3CC3)nn2c1=O [Example 2] , can you help?
< 100 nM

Looking for the measured IC50 of C=CC(=O)Nc1ccccc1-c1c(CC)nc2n(CC(=O)Nc3ccc(C(F)(F)F)cc3)c(-c3cccs3)nn2c1=O [Example 5] , can you help?
100 to 500 nM

Looking for the measured IC50 of C=CC(=O)Nc1ccccc1-c1c(CC)nc2n(CC(=O)Nc3ccc(C(F)(F)F)cc3)c(C3CCC3)nn2c1=O [Example 3] , can you help?
100 to 500 nM

Looking for the measured IC50 of C=CC(=O)Nc1ccccc1-c1c(CC)nc2n(CC(=O)Nc3ccc(C(F)(F)F)cc3)c(C)nn2c1=O [Example 1] , can you help?
< 100 nM

Looking for the measured IC50 of C=CC(=O)Nc1ccccc1-c1c(CC)nc2n(CC(=O)Nc3ccc(C(F)(F)F)cc3)c(C3CCNCC3)nn2c1=O [Example 6] , can you help?
1000 to 5000 nM

Looking for the measured IC50 of C=CC(=O)Nc1ccccc1-c1c(CC)nc2n(CC(=O)Nc3ccc(C(F)(F)F)cc3)c(C3CCCCC3)nn2c1=O [Example 4] , can you help?
5000 to 20000 nM

* * *

Target: WRN (Homo sapiens, UniProt Q14191)
Construct: A His-tagged construct of WRN (AA S2-S1235) was produced and used for the ATPase assay; made in house; host or cells: Sf9 insect cells (baculovirus, pFastBac1)
Test: WRN ATPase Activity Assay (ADP-Glo)
Type: biochemical
Conditions: 1-hr pre-incubation with enzyme; 100 μM ATP, 25 nM forked dsDNA, 1 nM WRN; geometric mean of at least 2 replicates
Experimental: Compounds of the Examples were tested for WRN ATPase activity. WRN ATPase activity catalyzes ATP hydrolysis to produce ADP and phosphate. DNA encoding the target protein, 6×HIS-TEV-WRN-517-945, was produced, cloned and transfected as detailed in Example D. The amount of ADP produced was measured using ADP-Glo™ Kinase Assay kit from Promega Corporation in a Greiner white regular volume 384 wells assay plate (Greiner #781075). […]
pIC50: −log10 of the molar value.
The compounds listed here are annotated with their pIC50.

>>> result("C=CC(=O)Nc1ccccc1-c1c(CC)nc2n(CC(=O)Nc3ccc(C(F)(F)F)cc3)c(C3CCNCC3)nn2c1=O [Example 6]")
"5.30 to 6.00"
>>> result("C=CC(=O)Nc1ccccc1-c1c(CC)nc2n(CC(=O)Nc3ccc(C(F)(F)F)cc3)c(C)nn2c1=O [Example 1]")
"> 7.00"
>>> result("C=CC(=O)Nc1ccccc1-c1c(CC)nc2n(CC(=O)Nc3ccc(C(F)(F)F)cc3)c(C3CCC3)nn2c1=O [Example 3]")
"6.30 to 7.00"
>>> result("C=CC(=O)Nc1ccccc1-c1c(CC)nc2n(CC(=O)Nc3ccc(C(F)(F)F)cc3)c(-c3cccs3)nn2c1=O [Example 5]")
"6.30 to 7.00"
>>> result("C=CC(=O)Nc1ccccc1-c1c(CC)nc2n(CC(=O)Nc3ccc(C(F)(F)F)cc3)c(C3CCCCC3)nn2c1=O [Example 4]")
"5.30 to 6.00"

Let us move to another entry and its pIC50.
API: value(readout= pIC50, system= WRN (Homo sapiens, UniProt Q14191), query= C=CC(=O)Nc1ccccc1-c1c(CC)nc2n(CC(=O)Nc3ccc(C(F)(F)F)cc3)c(C3CC3)nn2c1=O [Example 2] )
> 7.00
